Data provenance: ChEMBL document CHEMBL4311948

Biological target: UniProt Q06830
Sequence (Q06830 whole entry): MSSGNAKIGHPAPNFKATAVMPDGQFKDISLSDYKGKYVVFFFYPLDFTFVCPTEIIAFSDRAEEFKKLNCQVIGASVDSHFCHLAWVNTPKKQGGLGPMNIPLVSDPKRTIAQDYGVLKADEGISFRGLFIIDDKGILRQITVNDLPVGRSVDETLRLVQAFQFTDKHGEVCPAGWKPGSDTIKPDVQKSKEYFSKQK
pKd: −log10 of the molar value.
PARAMETER: pKd

> print(dat)
                                   compound  recorded.number
1  C/C=C(\C)[C@H](O)[C@H](C)/C=C(C)/C=C/C/C(C)=C/Cc1nc(OC)c(OC)c(O)c1C [PIERICIDIN A]             5.58
2  C/C=C(\C)[C@H](O[C@@H]1O[C@H](CO)[C@@H](O)[C@H](O)[C@H]1O)[C@H](C)/C=C(C)/C=C/C/C(C)=C/Cc1nc(OC)c(OC)c(O)c1C             5.74
